TEST DETAILS: physchem
CONDITION PARAMETERS: aqueous with cosolvent or surfactant or cyclodextrin
READOUT NAME: solubility

So for O=C(NCc1ccncc1)C12CC3CC(C1)CC(c1ccc(Cl)cc1)(C3)C2 [ABC294640] , the logged solubility turned out to be ≥ 15 mg/mL

====

TEST DETAILS: Pharmacokinetics in mice
Format: in vivo, mouse
CONDITION PARAMETERS: female, Swiss-Webster, mouse, whole blood; IV 50 mg/kg, mice
READOUT NAME: Tmax (h)
One number for each entry, in h.

Tmax measured on O=C(NCc1ccncc1)C12CC3CC(C1)CC(c1ccc(Cl)cc1)(C3)C2 = 0
